Let's look at some compounds and their measured Papp.
experiment: Permeability across artificial membrane by PAMPA model; assay type: ADME; conditions: read-out: permeability
Give the value, in units of ×10⁻⁶ cm/s, as a plain number.

1. Cc1cc(=O)n(-c2ccccc2)n1C [ANTIPYRINE] : 1.18
2. C[C@]12CC[C@H]3[C@@H](CCC4=CC(=O)CC[C@@]43C)[C@@H]1CC[C@@H]2O : 8.67

# Papp lookup, item Nc1nc2c(ncn2COCCO)c(=O)[nH]1
0.01

====

assay: Apparent permeability across Caco-2 cells via paracellular pathway; format: ADME, cell-based; conditions: human
*1 amine or outer side, *2 acyl side, *3 side chain or, on linkers, in order; H or OH if unused. Where a SMILES comes first, the peptide text is derived from it. Bridges are numbered along the chain shown (N, C = ends). [ ]: non-standard residue; d: D form. Phe(Nα-CH2CH2CO) = O=C([C@H](Cc1ccccc1)N(CCC(=O)[*:3])[*:1])[*:2]; N(2-aminoethyl)Phe = O=C([C@H](Cc1ccccc1)N(CCN[*:3])[*:1])[*:2]; NMeF = CN[C@@H](Cc1ccccc1)C(=O)O; Sar = CNCC(=O)O
property measured: Papp (×10⁻⁶ cm/s)
Unit ×10⁻⁶ cm/s implied. Number only.

1) CN[C@@H](Cc1ccccc1)C(=O)N(C)CC(=O)NCC(=O)NCC(=O)NCC(=O)N(C)[C@@H](Cc1ccccc1)C(N)=O (H-[NMeF][Sar]GGG[NMeF]-NH2) : 1.74

Proceeding to the next compound to report its Papp.
Look up Papp: CN1CC(=O)NCC(=O)NCC(=O)NCC(=O)N([C@@H](Cc2ccccc2)C(N)=O)CCNC(=O)CCN[C@@H](Cc2ccccc2)C1=O (H-[Phe(Nα-CH2CH2CO)][Sar]GGG[N(2-aminoethyl)Phe]-NH2; lactam 1-6)
7.58
